Test: Plasma protein binding
Format: in vitro ADME
Conditions: racemic
QUANTITY: fraction unbound

Returns the measured fraction unbound for the input compound. Input: Cc1nc2n(c(=O)c1CCN1CCC(c3noc4cc(F)ccc34)CC1)CCCC2O (stereo not shown) [paliperidone] 0.26

###

Target: α1 adrenergic receptor
Assay: In vitro receptor binding affinity
Conditions: antagonist
QUANTITY: pKi
# pKi: negative log10 of molar concentration; output just the value

Returns the measured pKi for the input compound. Input: Cc1nc2n(c(=O)c1CCN1CCC(c3noc4cc(F)ccc34)CC1)CCCC2O (stereo not shown) [paliperidone] 8.40

###

Test: clinical
Conditions: human, in vivo, po, 4 mg
QUANTITY: Cmax (ng/mL)
Only the number, expressed in ng/mL, is required.

Returns the measured Cmax for the input compound. Input: Cc1nc2n(c(=O)c1CCN1CCC(c3noc4cc(F)ccc34)CC1)CCCC2O (stereo not shown) [paliperidone] 35

###

Target: UniProt:P28223
Sequence (P28223 whole entry): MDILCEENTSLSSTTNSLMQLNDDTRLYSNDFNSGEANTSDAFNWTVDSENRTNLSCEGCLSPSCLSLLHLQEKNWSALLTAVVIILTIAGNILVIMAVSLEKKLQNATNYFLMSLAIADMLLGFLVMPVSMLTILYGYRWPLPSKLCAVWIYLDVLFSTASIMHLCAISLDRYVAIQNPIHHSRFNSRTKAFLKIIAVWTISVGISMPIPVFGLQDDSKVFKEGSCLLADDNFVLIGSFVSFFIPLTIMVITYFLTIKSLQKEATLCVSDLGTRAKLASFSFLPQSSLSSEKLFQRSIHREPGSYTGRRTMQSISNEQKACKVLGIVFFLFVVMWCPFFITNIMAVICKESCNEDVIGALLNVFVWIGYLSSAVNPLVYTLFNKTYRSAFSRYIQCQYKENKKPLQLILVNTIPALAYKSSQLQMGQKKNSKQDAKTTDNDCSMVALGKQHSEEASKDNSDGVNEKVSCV
QUANTITY: Ki

Returns the measured Ki for the input compound. Input: Cc1nc2n(c(=O)c1CCN1CCC(c3noc4cc(F)ccc34)CC1)CCCC2O (stereo not shown) 0.8 to 1.2 nM
